Listed here are molecules together with their documented Righting reflex duration.
- Test system: Sprague-Dawley rats
- test summary: Pharmacological characteristics at equivalent doses (2ED50), Group A compounds
- Type: in vivo
- measurement context: 2ED50, tail vein
Give your result in min as a bare value.

CC(=O)C1=C(OC(=O)c2c(F)c(F)nn2[C@H](C)c2ccccc2)CCC1 [Compound A98] = 1.89
C=C=CC1(OC(=O)c2c(F)cnn2[C@H](C)c2ccccc2)COC1 [Compound A73] = 1.21
CC(=O)C1=C(OC(=O)c2c(F)cnn2[C@H](C)c2ccccc2)CCC1 [Compound A90] = 5.21
CCC(CC)OC(=O)c1ccnn1[C@H](C)c1ccccc1 [Compound A21] = 1.16

Using the record for C[C@H](c1ccccc1)n1nccc1C(=O)OC1(C)COC1 [Compound A30] , state its measured Righting reflex duration.
2.6

---

- Test system: Sprague-Dawley rats
- test summary: animal or person
- measurement context: Rattus norvegicus, LORR in rats, tail vein; brackets = 95% confidence limit
parameter measured: ED50

Worked examples follow.
C[C@H](c1ccccc1)n1nnc(I)c1C(=O)OCC1CC1 = 0.5 to 1 mg/kg
C=C=CC1(OC(=O)c2c(F)nnn2[C@H](C)c2ccccc2)COC1 = 0.04 to 0.5 mg/kg
C=CCOC(=O)c1cnnn1[C@H](C)c1ccccc1 = 0.5 to 1 mg/kg
C[C@H](c1ccccc1)n1nncc1C(=O)OCC1CC1 = 0.5 to 1 mg/kg
C[C@H](c1ccccc1)n1nnc(I)c1C(=O)OC1(C)COC1 = 10 to 20 mg/kg

Find the measured ED50 of CO[C@H]1C[C@@H](OC(=O)c2cnnn2[C@H](C)c2ccccc2)C1 with Sprague-Dawley rats as test system.
0.5 to 1 mg/kg

Find the measured ED50 of C[C@H](c1ccccc1)n1nncc1C(=O)OC1CC1 with Sprague-Dawley rats as test system.
1 to 2 mg/kg

Find the measured ED50 of C=C=CC1(OC(=O)c2cnnn2[C@H](C)c2ccccc2)COC1 with Sprague-Dawley rats as test system.
0.04 to 0.5 mg/kg

Find the measured ED50 of COC(=O)C1=C(OC(=O)c2cnnn2[C@H](C)c2ccccc2)CCCC1 with Sprague-Dawley rats as test system.
0.5 to 1 mg/kg

Find the measured ED50 of CCOC(=O)c1cncn1C(C)c1ccccc1 (stereo not shown) [Etomidate, reference compound] with Sprague-Dawley rats as test system.
0.75 mg/kg

Find the measured ED50 of CO[C@H]1C[C@@H](OC(=O)c2c(F)nnn2[C@H](C)c2ccccc2)C1 with Sprague-Dawley rats as test system.
0.5 to 1 mg/kg

Find the measured ED50 of C=CC1(OC(=O)c2c(F)nnn2[C@H](C)c2ccccc2)COC1 with Sprague-Dawley rats as test system.
1 to 2 mg/kg

Find the measured ED50 of C[C@H](c1ccccc1)n1nncc1C(=O)OC1(C)COC1 with Sprague-Dawley rats as test system.
1 to 2 mg/kg

Find the measured ED50 of CCSC(=O)c1c(Br)nnn1[C@H](C)c1ccccc1 with Sprague-Dawley rats as test system.
0.5 to 1 mg/kg

Find the measured ED50 of C[C@H](c1ccccc1)n1nnc(I)c1C(=O)OC1CC1 with Sprague-Dawley rats as test system.
10 to 20 mg/kg

Find the measured ED50 of C[C@H](c1ccccc1)n1nnc(I)c1C(=O)OC1CCC1 with Sprague-Dawley rats as test system.
0.5 to 1 mg/kg

Find the measured ED50 of CC(C)OC(=O)c1cnnn1[C@H](C)c1ccccc1 with Sprague-Dawley rats as test system.
0.04 to 0.5 mg/kg

Find the measured ED50 of C=C=CC1(OC(=O)c2c(I)nnn2[C@H](C)c2ccccc2)CCCCC1 with Sprague-Dawley rats as test system.
1 to 2 mg/kg

Find the measured ED50 of CC(C)OC(=O)c1c(Br)nnn1[C@H](C)c1ccccc1 with Sprague-Dawley rats as test system.
0.5 to 1 mg/kg
